molecular target: POU1 (OCT1 POU domain) (human, UniProt P14859 260-458); test: EMSA-SELEX-seq; no BOB1; 20 mM Tris-HCl pH 7.6, 140 mM NaCl, 10% glycerol, 0.5 mM EDTA, 0.05% Triton X-100, 0.1 mg/mL BSA, 0.1 mg/mL poly(dI-dC), 5 mM DTT, room temperature, 20 min; high values mean tight binding; conditions: protein: recombinant; dsDNA, one strand shown
Sequence (P14859 260-458): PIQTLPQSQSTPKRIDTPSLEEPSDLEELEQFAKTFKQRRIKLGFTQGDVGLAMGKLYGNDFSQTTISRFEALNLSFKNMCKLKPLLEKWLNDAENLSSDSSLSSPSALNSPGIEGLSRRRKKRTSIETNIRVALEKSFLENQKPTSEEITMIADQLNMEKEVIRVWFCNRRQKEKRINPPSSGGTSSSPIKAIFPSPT
MEASUREMENT_TYPE: binding signal

The cases that follow already have their binding signal on record.
| PRIMARY_SEQUENCE | binding signal |
| --- | --- |
| AGTGCAAG | 0.0187 % of ANNNNAAN 8-mers |
| ACCGTAAC | 0.0118 % of ANNNNAAN 8-mers |

[Q] Give the measured binding signal of AAAAAAAT .
[A] 0.13 % of ANNNNAAN 8-mers

[Q] Give the measured binding signal of AACGCAAA .
[A] 0.147 % of ANNNNAAN 8-mers

[Q] Give the measured binding signal of AAAGAAAG .
[A] 0.0679 % of ANNNNAAN 8-mers

[Q] Give the measured binding signal of AGCTTAAG .
[A] 0.029 % of ANNNNAAN 8-mers

[Q] Give the measured binding signal of AGTACAAT .
[A] 0.0416 % of ANNNNAAN 8-mers

[Q] Give the measured binding signal of AGTGCAAC .
[A] 0.0118 % of ANNNNAAN 8-mers

[Q] Give the measured binding signal of AGGACAAA .
[A] 0.045 % of ANNNNAAN 8-mers

[Q] Give the measured binding signal of AGTCAAAC .
[A] 0.0763 % of ANNNNAAN 8-mers

[Q] Give the measured binding signal of ACGCCAAG .
[A] 0.0145 % of ANNNNAAN 8-mers

[Q] Give the measured binding signal of ACGCAAAG .
[A] 0.098 % of ANNNNAAN 8-mers

[Q] Give the measured binding signal of AAAGGAAC .
[A] 0.0435 % of ANNNNAAN 8-mers

[Q] Give the measured binding signal of AAGACAAC .
[A] 0.0168 % of ANNNNAAN 8-mers
